target: T1, PSMA Fab (006 PSMA Fab); assay: phage ELISA; biotinylated PSMA Fab on neutravidin plate, clonal phage supernatant, anti-M13 HRP detection;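 further: wells preincubated with PSMA antigen in blocking buffer or with blocking buffer only before clonal phage were added for a short incubation, then bound phage detected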
T1 construct: In the phage ELISA the PSMA Fab was biotinylated and captured on neutravidin coated plates; also called Anti-PSMA Fab; anti-PSMA Fab
For each record, write down the corresponding Phage binding ELISA signal, Anti-PSMA Fab.

Quick one: Phage binding ELISA signal, Anti-PSMA Fab for DIRWCTPPWMCMHL [Phage-2822 (Peptide-180 library clone)] ?
0.486

Quick one: Phage binding ELISA signal, Anti-PSMA Fab for LEKWCIPSQLCQLD [Phage-2827 (Peptide-180 library clone)] ?
0.464

Quick one: Phage binding ELISA signal, Anti-PSMA Fab for GVNWCVPPWMCLND [Phage-2823 (Peptide-180 library clone)] ?
0.484
